Record form. Attribute: EC50. Fill in for each entry.
measurement target: LPA1 (Homo sapiens)
Sequence (Q92633 whole entry): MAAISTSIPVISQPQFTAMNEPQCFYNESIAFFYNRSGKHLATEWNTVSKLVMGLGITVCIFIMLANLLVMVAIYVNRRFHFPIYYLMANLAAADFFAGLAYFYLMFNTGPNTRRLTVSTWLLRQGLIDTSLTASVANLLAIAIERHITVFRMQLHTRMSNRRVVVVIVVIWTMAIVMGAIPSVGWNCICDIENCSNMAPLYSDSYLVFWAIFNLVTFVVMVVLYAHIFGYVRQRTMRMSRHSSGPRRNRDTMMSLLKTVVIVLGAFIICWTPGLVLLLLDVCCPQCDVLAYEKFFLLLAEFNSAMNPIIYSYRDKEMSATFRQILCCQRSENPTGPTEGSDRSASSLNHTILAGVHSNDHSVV
assay name: LPA1 Migration Assay (Oris)
experimental parameters: read-out: Cell Migration EC50

In: Given the entry C[C@@H](OC(=O)Nc1c(-c2cc3sc(-c4ccc(C5(C(=O)O)CC5)cc4F)cc3s2)cnn1C)c1ccccc1 , report its measured EC50.
Out: 50 to 500 nM

In: // lookup EC50 for COC(=O)C1(c2cc3sc(C#Cc4cnn(C)c4NC(=O)O[C@H](C)c4ccccc4)cc3s2)CC1
Out: > 500 nM

In: Quick check: EC50 of Cc1cc(CC(=O)O)ccc1-c1cc2sc(-c3cnn(C)c3NC(=O)O[C@H](C)c3ccccc3)cc2s1 ?
Out: > 500 nM

In: If you can, please state the reported EC50 value of CC(=O)N(C(C)=O)S(=O)(=O)c1ccc(-c2ccc(-c3onc(C)c3NC(=O)O[C@H](C)c3ccccc3)cc2)cc1 .
Out: > 500 nM

In: Quick one: EC50 of C[C@@H](OC(=O)Nc1c(C#Cc2ccc3cc(C4(C(=O)O)CC4)ccc3c2)cnn1C1CC1)c1ccccc1 ?
Out: 50 to 500 nM

In: Would you kindly share the measured EC50 for C[C@@H](OC(=O)Nc1c(-c2ccc(-c3ccc(C4(C(=O)O)CC4)cc3)cc2)oc2ccccc12)c1ccccc1 ?
Out: < 50 nM

In: # query: EC50 of entry C[C@@H](OC(=O)Nc1c(-c2ccc(-c3ccc(Oc4cccc(F)c4C(=O)O)cc3)cc2)nnn1C)c1ccccc1
Out: < 50 nM
